protocol_text: ATG_NRF2_ARE_CIS: Attagene CIS-FACTORIAL HepG2 Assay for human Nuclear Factor Erythroid 2 Related Factor 2 (NFR2) response to Antioxidant Response Elements (ARE) (AID 2282992)
assay_conditions: HepG2 Attagene ARE/NRF2 reporter, transcription factor activity; actives raise or lower the signal
Activity calls are given as the source filed them. How the source made its calls: active means hit-call score of the fitted dose curve at least 0.9, where 1 is the maximum; inactive means score below 0.9.
Outcomes: active, inactive

> print(dat)
                                smiles.entry  label.class
 1                 O=C(Cc1ccccc1)OCCc1ccccc1     inactive
 2                               COc1ccccc1N     inactive
 3                           N#Cc1ccc(Cl)cc1     inactive
 4                      CN(C1CCCCC1)C1CCCCC1       active
 5                    c1ccc2c(c1)Oc1ccccc1O2       active
 6             COP(=S)(OC)Oc1cc(Cl)c(I)cc1Cl       active
 7                                 NC(=O)CCl       active
 8                          CC[N+](CC)(CC)CC     inactive
 9  CN(C)[C@@H]1C(=O)C(C(N)=O)=C(O)[C@@]2(O)C(=O)C3=C(O)c4c(O)ccc(Cl)c4[C@@](C)(O)[C@H]3C[C@@H]12       active
10                       Oc1c(Br)cc(Br)cc1Br       active
11                               O=C(CCl)NCO       active
12                                    C=CCCl     inactive
13                                  BrCCCCBr     inactive
14                             N#Cc1ccccc1Cl     inactive
15                O=[N+]([O-])c1cccc2ccccc12       active
16                              N#Cc1ccccc1N     inactive
17   O=S(=O)(F)C(F)(F)C(F)(F)C(F)(F)C(F)(F)F     inactive
18                  Cc1ccc2nc3sc(=O)sc3nc2c1       active
19  O=S1(=O)OC(c2cc(Br)c(O)c(Br)c2)(c2cc(Br)c(O)c(Br)c2)c2ccccc21       active
20             OCC(c1ccc(Cl)cc1)c1ccc(Cl)cc1       active
21                          Fc1cccc(Cl)c1CCl       active
22    O=[N+]([O-])c1ccc(Cl)c([N+](=O)[O-])c1     inactive
23  C#C[C@]1(O)CC[C@H]2[C@@H]3CCC4=CC(=O)CC[C@]4(C)[C@H]3CC[C@@]21C     inactive
24            CNC(=O)O/N=C/C(C)(C)S(C)(=O)=O     inactive
25  Cc1ccc(OP(=O)(Oc2ccc(C)cc2C)Oc2ccc(C)cc2C)c(C)c1       active
26  CC(C)O.CC(C)O.OCCN(CCO)CCO.OCCN(CCO)CCO.[Ti]     inactive
27                              O=NN1CCCCCC1     inactive
28       O=C(Nc1ccc(Br)cc1)c1cc(Br)cc(Br)c1O       active
29                               CN(C)C(=S)S       active
